Ref: paper PMC8398847

assay: Solubility by isothermal saturation (shake flask) method; assay type: physicochemical; settings: aqueous buffer solutions, pH 7.4, buffers pH 7.4, 2.0, 1.2; 298.15 K; read-out: solubility in aqueous buffer solutions

[
  {
    "smiles": "C[C@@H](c1nc(-c2ccc(C#N)cc2)cs1)[C@](O)(Cn1cncn1)c1cc(F)ccc1F",
    "solubility": "8.13 to 42.4 µM"
  }
]

---

test: Solubility by isothermal saturation (shake flask) method; format: physicochemical; details: seven solvents (buffers pH 1.2, 2.0, 7.4; hexane; alcohols), seven solvents; 293.15 to 313.15 K; read-out: solubility, span over solvents
assay readout: solubility

[
  {
    "smiles": "C[C@@H](c1nc(-c2ccc(C#N)cc2)cs1)[C@](O)(Cn1cncn1)c1cc(F)ccc1F",
    "result": "0.0067 to 300 mM"
  }
]

---

Assay: Partition experiment, 1-octanol/buffer pH 7.4, shake flask
Assay type: physicochemical
Settings: 1-octanol/buffer pH 7.4, pH 7.4, 1-octanol/buffer pH 7.4; 308.15 K; read-out: logP*O/B (mole fraction scale)
Protocol: The partition coefficients in the 1-octanol/buffer pH 7.4 system were determined by the shake flask method in the temperature range 293.15–313.15 K. The total volume of the two-phase system 80 cm^3 with the ratio of the organic phase to the volume of the aqueous phase 1:1 was used. […] The final drug concentrations in both immiscible phases were measured spectrophotometrically. […] The value P*O/B expressed in mole fraction were determined by follow equation:P*O/B = xO/xB(10) […]

[
  {
    "compound": "C[C@@H](c1nc(-c2ccc(C#N)cc2)cs1)[C@](O)(Cn1cncn1)c1cc(F)ccc1F [IVZ, Isavuconazole]",
    "logP at 24 h": 3.62
  }
]

---

test: Solubility by isothermal saturation (shake flask) method; type: physicochemical; settings: hexane, organic solvent or mixture, thermodynamic from solid, hexane; 293.15 K; read-out: solubility S·10^4
assay readout: solubility (µM)

[
  {
    "smiles": "C[C@@H](c1nc(-c2ccc(C#N)cc2)cs1)[C@](O)(Cn1cncn1)c1cc(F)ccc1F",
    "unit name": "µM",
    "recorded number": 423
  }
]

---

test: Solubility by isothermal saturation (shake flask) method; assay type: physicochemical; conditions: hexane, organic solvent or mixture, thermodynamic from solid, hexane; 313.15 K; read-out: solubility S·10^4
assay readout: solubility (µM)

[
  {
    "smiles": "C[C@@H](c1nc(-c2ccc(C#N)cc2)cs1)[C@](O)(Cn1cncn1)c1cc(F)ccc1F",
    "recorded number": 1050
  }
]

---

test: Solubility by isothermal saturation (shake flask) method; format: physicochemical; settings: buffer pH 7.4, pH 7.4, aqueous buffer, thermodynamic from solid, buffer pH 7.4; 313.15 K; read-out: solubility S·10^6
assay readout: solubility (µM)

[
  {
    "smiles": "C[C@@H](c1nc(-c2ccc(C#N)cc2)cs1)[C@](O)(Cn1cncn1)c1cc(F)ccc1F",
    "recorded number": 14.5
  }
]
